Data provenance is ChEMBL document CHEMBL4689842.

Tested on: U2OS
test_summary: Multiplex assay against U2OS
Assay type: toxicity, cell-based
condition_label: human, 24 h, 10 µM, compound concentration 10 uM, replicate 2
readout_name: Population Membrane Permeable-Phenotype (%)
Just the number please, in %, no unit attached.

CCCS(=O)(=O)Nc1ccc(F)c(C(=O)c2c[nH]c3ncc(Cl)cc23)c1F [PLX-4720] ... 7
CCCS(=O)(=O)c1nc(NC2CC2)cc(-c2ccc3c(ccn3C3CC(C)(C)NC(C)(C)C3)c2)n1 ... 96
CN1CCC(=C2c3ccccc3CC(=O)c3sccc32)CC1.O=C(O)/C=C/C(=O)O [KETOTIFEN FUMARATE] ... 22
O=C(Cc1ccc(-c2ccc(OCCN3CCOCC3)cc2)cn1)NCc1ccccc1 [TIRBANIBULIN] ... 10
CCc1cccc(CC)c1NC(=O)c1nn(C)c2c1CCc1cnc(Nc3ccc(C(=O)NC4CCN(C)CC4)cc3OC(F)(F)F)nc1-2 ... 26
COc1ccc(S(=O)(=O)N(CCO)c2ccccc2CN(C)C/C=C/c2ccc(Cl)cc2)cc1.O=P(O)(O)O ... 17
Cc1cc(C)c(S(=O)(=O)N(Cc2ccc(-c3cccc(S(C)(=O)=O)c3)cc2)Cc2ccc(C(F)(F)F)o2)c(C)c1 ... 5
CCN1CCN(c2ccc(Nc3cc(N(C)C(=O)Nc4c(Cl)c(OC)cc(OC)c4Cl)ncn3)cc2)CC1 [INFIGRATINIB] ... 17

Task: Enter reported Population Membrane Permeable-Phenotype (%) observed with U2OS for O=C(Nc1cccnn1)N1CCC(=Cc2cccc(Oc3ccc(C(F)(F)F)cn3)c2)CC1
Output: 8

Task: Enter reported Population Membrane Permeable-Phenotype (%) observed with U2OS for CCOc1cc(C(=O)N2CCC(N3CCN(C)CC3)CC2)ccc1Nc1ncc2c(n1)N(C1CCCC1)c1ccccc1C(=O)N2C
Output: 100

Task: Enter reported Population Membrane Permeable-Phenotype (%) observed with U2OS for CCOC(=O)c1c(C)[nH]c2ccc3c(c12)CN1CCc2cc(OC)ccc2C1O3 (stereo not drawn)
Output: 83

Task: Enter reported Population Membrane Permeable-Phenotype (%) observed with U2OS for COc1ccc(-c2ccc3c(N4CCOCC4)nc(N4C[C@@H](C)O[C@@H](C)C4)nc3n2)cc1CO [Ku-0063794]
Output: 7

---

System: U2OS
test_summary: Multiplex assay against U2OS
Format: toxicity, cell-based
condition_label: human, 24 h, 1 µM, compound concentration 1 uM, replicate 2
Response field label takes t when Population Mitotic Cells (%) is strictly below 70% and f in all other cases.

Task: Lab note: confirm whether the reported Population Mitotic Cells (%) for this compound is below 70%, equality not counting. compound: COc1cc(N2CCN(C)CC2)ccc1Nc1ncc2c(n1)N(C)c1ccccc1C(=O)N2C
Output: t

Task: Lab note: confirm whether the reported Population Mitotic Cells (%) for this compound is below 70%, equality not counting. compound: O=C1N/C(=N/c2ccccc2F)S/C1=C\c1ccc(C(=O)O)cc1
Output: f

Task: Lab note: confirm whether the reported Population Mitotic Cells (%) for this compound is below 70%, equality not counting. compound: CN1CCN(C(=O)C(C)(C)c2ccc(C(=O)Nc3cn4cc(-c5cc(C(C)(C)C)cc(C(C)(C)C)c5)ccc4n3)cc2)CC1 [T3-CLK-N]
Output: t

Task: Lab note: confirm whether the reported Population Mitotic Cells (%) for this compound is below 70%, equality not counting. compound: CCN1CCN(c2ccc(Nc3cc(N(C)C(=O)Nc4c(Cl)c(OC)cc(OC)c4Cl)ncn3)cc2)CC1 [INFIGRATINIB]
Output: t

Task: Lab note: confirm whether the reported Population Mitotic Cells (%) for this compound is below 70%, equality not counting. compound: CCc1cccc(CC)c1NC(=O)c1nn(C)c2c1CCc1cnc(Nc3ccc(N4CCN(C)CC4)cc3OC)nc1-2
Output: t

Task: Lab note: confirm whether the reported Population Mitotic Cells (%) for this compound is below 70%, equality not counting. compound: O=C(Nc1ccc(-n2nc(-c3cccnc3)cc2C(F)(F)F)cn1)c1ccc(-c2ccccc2)c(F)c1 [BI 2049]
Output: f

Task: Lab note: confirm whether the reported Population Mitotic Cells (%) for this compound is below 70%, equality not counting. compound: COc1ccc(-c2ccc3c(N4CCOCC4)nc(N4C[C@@H](C)O[C@@H](C)C4)nc3n2)cc1CO [Ku-0063794]
Output: f

Task: Lab note: confirm whether the reported Population Mitotic Cells (%) for this compound is below 70%, equality not counting. compound: COc1cccc2cc(-c3nc([C@H]4CC[C@H](C(=O)O)CC4)n4ncnc(N)c34)[nH]c12 [OSI-027]
Output: t

Task: Lab note: confirm whether the reported Population Mitotic Cells (%) for this compound is below 70%, equality not counting. compound: CN(C)C(=O)C(CCN1CCC(O)(c2ccc(Cl)cc2)CC1)(c1ccccc1)c1ccccc1.Cl [LOPERAMIDE HYDROCHLORIDE]
Output: t

Task: Lab note: confirm whether the reported Population Mitotic Cells (%) for this compound is below 70%, equality not counting. compound: S=C(NCCCc1c[nH]cn1)NCCCN(Cc1ccc(Cl)c(Cl)c1)c1ccc(Br)cn1
Output: t

Task: Lab note: confirm whether the reported Population Mitotic Cells (%) for this compound is below 70%, equality not counting. compound: Cc1ccc2nc(NCCN)c3ncc(C)n3c2c1.O=C(O)C(F)(F)F.O=C(O)C(F)(F)F
Output: f

Task: Lab note: confirm whether the reported Population Mitotic Cells (%) for this compound is below 70%, equality not counting. compound: Cc1cn(-c2cc(NC(=O)c3ccc(C)c(Nc4nccc(-c5cccnc5)n4)c3)cc(C(F)(F)F)c2)cn1 [NILOTINIB]
Output: t

Task: Lab note: confirm whether the reported Population Mitotic Cells (%) for this compound is below 70%, equality not counting. compound: Cl.O=C(c1ccc(Nc2nccc(-c3cc4ccccc4s3)n2)cc1)N1CCC(N2CCCC2)CC1
Output: t

Task: Lab note: confirm whether the reported Population Mitotic Cells (%) for this compound is below 70%, equality not counting. compound: Cn1nc(C(F)(F)F)cc1-c1cnc(N2CCc3cc(S(=O)(=O)Nc4c(F)cc(Cl)cc4F)cc(N4CCCC4=O)c32)nc1 [TP-020]
Output: t

Task: Lab note: confirm whether the reported Population Mitotic Cells (%) for this compound is below 70%, equality not counting. compound: CNC(=O)c1ccc(Nc2nc(OC3CCCC3)c3c(-c4ccc5nc(C)oc5c4)c[nH]c3n2)c(OC)c1
Output: t

---

Entries and their Population Hoechst High Intensity Objects (%) values follow.
Test system: Fibroblast
test_summary: Multiplex assay against human fibroblast
Type: toxicity, cell-based
condition_label: 24 h, 1 µM, compound concentration 1 uM, replicate 1

COc1cc(N2CCN(C)CC2)ccc1Nc1ncc2c(n1)N(C)c1ccccc1C(=O)N2C ... 10%
Cc1ccc2nc(NCCN)c3ncc(C)n3c2c1.O=C(O)C(F)(F)F.O=C(O)C(F)(F)F ... 11%
COc1cccc2cc(-c3nc([C@H]4CC[C@H](C(=O)O)CC4)n4ncnc(N)c34)[nH]c12 ... 33%
CN1CCN(C(=O)C(C)(C)c2ccc(C(=O)Nc3cn4cc(-c5cc(C(C)(C)C)cc(C(C)(C)C)c5)ccc4n3)cc2)CC1 ... 16%
COc1ccc(-c2ccc3c(N4CCOCC4)nc(N4C[C@@H](C)O[C@@H](C)C4)nc3n2)cc1CO ... 18%

Task: Enter reported Population Hoechst High Intensity Objects (%) observed with Fibroblast for CN[C@@H]1C[C@H]2O[C@@](C)([C@@H]1OC)n1c3ccccc3c3c4c(c5c6ccccc6n2c5c31)C(=O)NC4
Output: 21%

Task: Enter reported Population Hoechst High Intensity Objects (%) observed with Fibroblast for CN1CCC(=C2c3ccccc3CC(=O)c3sccc32)CC1.O=C(O)/C=C/C(=O)O [KETOTIFEN FUMARATE]
Output: 12%

Task: Enter reported Population Hoechst High Intensity Objects (%) observed with Fibroblast for O=C1NC(=O)C(c2cnc3ccccn23)=C1c1cn2c3c(cc(F)cc13)CN(C(=O)N1CCCCC1)CC2
Output: 7%

Task: Enter reported Population Hoechst High Intensity Objects (%) observed with Fibroblast for Cl.Oc1ccc2c3c1O[C@H]1c4[nH]c5c(c4C[C@@]4(O)[C@@H](C2)N(CC2CC2)CC[C@]314)C[C@@]1(O)[C@H]2Cc3ccc(O)c4c3[C@@]1(CCN2CC1CC1)[C@H]5O4
Output: 14%

Task: Enter reported Population Hoechst High Intensity Objects (%) observed with Fibroblast for O=C(Nc1ccc(-c2ccnc(Nc3ccc(N4CCOCC4)cc3)n2)cc1)[C@@H]1CCCN1
Output: 9%

Task: Enter reported Population Hoechst High Intensity Objects (%) observed with Fibroblast for C=CCn1c(=O)c2cnc(Nc3ccc(N4CCN(C)CC4)cc3)nc2n1-c1cccc(C(C)(C)O)n1
Output: 18%

Task: Enter reported Population Hoechst High Intensity Objects (%) observed with Fibroblast for Cl.O=c1c2cccn2c2ccccc2n1CCCN1CCC(c2ccc(Cl)cc2)CC1
Output: 11%
